ASSAY_TARGET: furin, P09958;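 note: purified furin at 1:10 enzyme:substrate in 50 mM HEPES pH 7.5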
Sequence (P09958 whole entry): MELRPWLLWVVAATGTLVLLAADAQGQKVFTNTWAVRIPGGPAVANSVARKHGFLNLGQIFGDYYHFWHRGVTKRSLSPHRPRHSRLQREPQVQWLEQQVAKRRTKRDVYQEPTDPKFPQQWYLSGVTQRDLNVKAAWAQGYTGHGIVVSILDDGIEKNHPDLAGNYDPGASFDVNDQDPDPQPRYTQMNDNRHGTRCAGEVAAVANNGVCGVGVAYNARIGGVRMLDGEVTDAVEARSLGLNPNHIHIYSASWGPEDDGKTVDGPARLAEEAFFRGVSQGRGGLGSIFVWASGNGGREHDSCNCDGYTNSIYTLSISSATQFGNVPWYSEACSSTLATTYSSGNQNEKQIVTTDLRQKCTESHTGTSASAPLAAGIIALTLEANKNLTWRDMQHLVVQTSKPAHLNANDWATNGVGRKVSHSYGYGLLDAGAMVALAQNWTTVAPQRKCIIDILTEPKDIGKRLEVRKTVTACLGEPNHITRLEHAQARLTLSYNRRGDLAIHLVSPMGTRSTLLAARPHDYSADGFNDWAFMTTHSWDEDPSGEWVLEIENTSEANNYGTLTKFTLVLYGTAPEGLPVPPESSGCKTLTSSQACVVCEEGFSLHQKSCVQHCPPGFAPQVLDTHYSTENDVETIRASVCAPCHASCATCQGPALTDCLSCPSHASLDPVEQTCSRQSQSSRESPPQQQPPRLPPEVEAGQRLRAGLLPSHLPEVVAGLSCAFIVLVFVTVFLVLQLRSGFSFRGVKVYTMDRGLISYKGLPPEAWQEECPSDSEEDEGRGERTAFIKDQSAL
PROTOCOL: furin cleavage Z-score vs untreated control; higher = more cleavage, active = 3.5 or more, inactive = 1 or less, 8 variable residues between constant flanks
CONDITION_INFO: 30 min
Some of the results follow. How many sequences the whole screen found active is unknown.
Write down one outcome, taken from active, inactive

I would be grateful if you could indicate the recorded call for CASYLKGSSGAGNASASA [HC740] . inactive

I would be grateful if you could indicate the recorded call for CARSRRAQPPAGNASASA [FS-2814] . active

I would be grateful if you could indicate the recorded call for CARSRRWKVKAGNASASA [FS-3211] . inactive

I would be grateful if you could indicate the recorded call for CARSRRALPPAGNASASA [FS-2239] . active

I would be grateful if you could indicate the recorded call for CARSRRCLRDAGNASASA [FS-2607] . active

I would be grateful if you could indicate the recorded call for CASMSYSWTGAGNASASA [HC1371] . inactive

I would be grateful if you could indicate the recorded call for CAMLKRFARMAGNASASA [FS-1036] . active

I would be grateful if you could indicate the recorded call for CARSRRCTCFAGNASASA [FS-2187] . inactive

I would be grateful if you could indicate the recorded call for CASTPCSSHLAGNASASA [HC2537] . inactive

I would be grateful if you could indicate the recorded call for CAMEECSQHIAGNASASA [HC1764] . inactive

I would be grateful if you could indicate the recorded call for CARATRARRAAGNASASA [FS-82] . active

I would be grateful if you could indicate the recorded call for CAAKRRPRRMAGNASASA [FS-1302] . active

I would be grateful if you could indicate the recorded call for CARSRRKLMVAGNASASA [FS-2817] . inactive

I would be grateful if you could indicate the recorded call for CARKTRSHTAAGNASASA [FS-3225] . active

I would be grateful if you could indicate the recorded call for CARSRRNVVMAGNASASA [FS-2382] . active
